System: VDR homodimer (NR concentration 270 nM)
Test: PBM binding z-score (relative to random genomic background probes); higher = stronger binding; sequences stand for … in GC…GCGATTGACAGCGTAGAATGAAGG
observation type: PBM binding z-score
Could you keep your reply to the number by itself?

Look over these answered cases.
biopolymer sequence | PBM binding z-score
ACTAGCAGGCCATGGGTCACTCAAGATTAGTCCG | -0.0856
GGAATGAGGGCAAGTTGATAGCAGAGTTTGATGG | 2.22
TAGCCTAGCTCAGATCGGGCCAGTATACGCTATA | -0.652
TTAACAAGGTGAGCTGAGGTCGTTGATCCAACTC | 1.8

State its PBM binding z-score for this sequence: "CCAGACAGGTGAGATGGTAACTCAGCCTCGATTA" 0.202

====

Tested on: PPARg DBDmut IVT, anti-PPARg (DBD mutation: PPARg1 K132A/R137A, NR concentration 270 nM)
Assay: PBM binding z-score (relative to random genomic background probes); higher = stronger binding; sequences stand for … in GC…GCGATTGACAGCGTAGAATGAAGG
observation type: PBM binding z-score
Could you keep your reply to the number by itself?

Name the recorded PBM binding z-score of "CCGAGTAGGTTATGGAGCATTCAGGCAACGGTGA" , assay system PPARg DBDmut IVT, anti-PPARg (DBD mutation: PPARg1 K132A/R137A, NR concentration 270 nM). -0.703

Name the recorded PBM binding z-score of "AGAACGAGGGCTCGCTGAGTTGATAGCAGAGTAG" , assay system PPARg DBDmut IVT, anti-PPARg (DBD mutation: PPARg1 K132A/R137A, NR concentration 270 nM). -0.699

Name the recorded PBM binding z-score of "CCTTACGGGTCAGTCCAGGTTATAGCATCGGAGT" , assay system PPARg DBDmut IVT, anti-PPARg (DBD mutation: PPARg1 K132A/R137A, NR concentration 270 nM). -0.72

====

Tested on: VDR:RXRa (NR concentration 270 nM, RXRa partner concentration 90 nM)
Experiment: PBM binding z-score (relative to random genomic background probes); higher = stronger binding; sequences stand for … in GC…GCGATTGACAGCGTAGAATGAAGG
Please assign a class to every record based on measured PBM binding z-score, with ranges Low (below 0.7), Medium (0.7 to below 2), High (2 or more)

Here's what some known entries look like.
biopolymer sequence | group
GGACCGAGGGCAAAGTTGATAGCATCTGTCGACG | Medium
CCTTACGGGTCACGCCAGGTTATAGCATCGGAGT | High
TCTGCTAGGACAGTTGGTCAGCTAACGAGCTGCC | Low
ACTAGCAGGCCAAGTTTGGGTCACTCCAACAAAG | Low
ATACCAAGCTGATCGTGAGGTCGTTGATACTAAC | Medium
ATACCAAGGTGATCGTGAGGTCCTTGATACTAAC | Low
CCGACTGGGGCATAGGGTTACCATAAGCCAGCCC | Low
CAAACTCGGTCAAAGGTCAAAGTCGAGCCAACCA | High

Which category does the recorded PBM binding z-score put "AATAAAGGGTCACTAGGCCAGAGTAGGTACGAAT" in? High

Which category does the recorded PBM binding z-score put "ATCTCTAGGTAAAAGTTCCGTGAATCCCGAGGAT" in? Low

Which category does the recorded PBM binding z-score put "TTTCGGAGGACACGAAGGTCAGAGCTTTCCAGAG" in? High

Which category does the recorded PBM binding z-score put "GCTAGTTGGTCAGTATAAGGTCACACACCGGTCG" in? High

Which category does the recorded PBM binding z-score put "TCTCGGAGGGCACGAAAGGTCAGAGCTCGACATC" in? High

Which category does the recorded PBM binding z-score put "TCTGCTTGGTCAGTTGGTCAGCTAACGAGCTGCC" in? Low

Which category does the recorded PBM binding z-score put "ATCGAAAGGTCGTGAGGTTAGTATACAGAAAGGC" in? High

Which category does the recorded PBM binding z-score put "CCTAGTTGGTCAAGGGCACACACGCTATAGGTAC" in? Medium

====

Tested on: LXRa:RXRa (NR concentration 270 nM, RXRa partner concentration 90 nM)
Assay: PBM binding z-score (relative to random genomic background probes); higher = stronger binding; sequences stand for … in GC…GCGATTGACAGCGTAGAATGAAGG
Could you label it True if measured PBM binding z-score is 0.9 or higher, and False otherwise?

Here's what some known entries look like.
biopolymer sequence | group
TATACAGGTTCAAAGGCCAGAGTACGAATGTCGA | True
ACAAGCAGGCCAAGTTTGGGTCACTCAAACAAAG | False
ATCGAAAGGTCGACGAGGGGAGTATACACCGTTT | True
ATCTCTAGGTAGAGATAGTTCAGTGAATGCAAAT | False
CTACCAAGGTGAACGAGGTCGTTGATTACTATTC | True
ACAGACAGGTGAGTGAAGGTAAATCAGCTGGACG | False
CCTACTGGGCCACGAAAGGTCATGGATTCAGTGA | True
AGTAGCAGGCCAAGTTTGGGTCACTCAAACAAAG | False

Check the entry "ACCGAAAGGTCGAAGGTGAGTATACCCACCCGAA" : does PBM binding z-score equal or exceed 0.9? True

====

Test system: PPARg:RXRa (NR concentration 180 nM, RXRa partner concentration 90 nM)
Test: PBM binding z-score (relative to random genomic background probes); higher = stronger binding; sequences stand for … in GC…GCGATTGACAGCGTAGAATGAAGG
Please assign a class to every record based on measured PBM binding z-score, with ranges low end: < 0.6; middle: ≥ 0.6 and < 2; high end: ≥ 2

Here's what some known entries look like.
biopolymer sequence | group
CCTTACGGGTCTCGAGGTTATAGCACGACGAGCG | middle
GCATATAGGTAGTACAAGGTGAAAGTCCGATTGT | middle
CCTATGAGTTGACCATAAGGGCAACCGAAGCTCG | low end
GCTAGTTGGTCGGTAAAAGGTCACACACCGGTCG | high end
GGAACGAGGGCAAAGTTGAGAGCATCTGTCGACG | high end

Which category does the recorded PBM binding z-score put "TTACCAAGGTGAGCTGTGGTCGTTGATCCAACTC" in? low end

Which category does the recorded PBM binding z-score put "GCTGCTACGTCAGGTTGGTCAGCTAACGGGTACG" in? low end

Which category does the recorded PBM binding z-score put "CCGAGTAGGTTACGGGGCATTCAGGCAACGGTGA" in? high end

====

Tested on: PXR homodimer (NR concentration 270 nM)
Assay: PBM binding z-score (relative to random genomic background probes); higher = stronger binding; sequences stand for … in GC…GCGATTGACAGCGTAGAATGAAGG
Could you label it Criterion met if measured PBM binding z-score is 0.9 or higher, and Criterion not met otherwise?

Here's what some known entries look like.
biopolymer sequence | group
CGTCCAAGGTCAAAGAGGTCAGTGAATGCCGAGT | Criterion met
TCTTGTAGATCAAGCAGGTTAAGACAGCCTGAGT | Criterion not met
TCTTGTAGATCAAAGGTTCAGAAAGCCGAAGCCT | Criterion not met
ATCTCTAGGTAACAGGTTCAGTGAAAGAGAGGAC | Criterion met
CGTCCAAGGTCAGAGAGGTCTGTGAATGCCGAGT | Criterion met
CTACCAAGGTAAACAAGGTCGTTGATTACTATTC | Criterion met

Shift focus to the following entry.
Check the entry "CCAGACAGGTGAACGGTAACTCAGTCTGGTACGC" : does PBM binding z-score equal or exceed 0.9? Criterion not met

====

Listed next: entries and their corresponding PBM binding z-score.
Test system: RARa homodimer (NR concentration 270 nM)
Assay: PBM binding z-score (relative to random genomic background probes); higher = stronger binding; sequences stand for … in GC…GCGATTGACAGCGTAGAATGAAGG

State its PBM binding z-score for this sequence: "CAAACTAGGTCACAGAGGTCAAAGACCGTGCGTA" 2.59

State its PBM binding z-score for this sequence: "ATCTTTAGGTAAAGATAGTTCAGTGAATGCAAAT" 1.15

State its PBM binding z-score for this sequence: "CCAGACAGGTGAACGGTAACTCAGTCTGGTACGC" -0.204

====

Test system: LXRb homodimer (NR concentration 270 nM)
Assay: PBM binding z-score (relative to random genomic background probes); higher = stronger binding; sequences stand for … in GC…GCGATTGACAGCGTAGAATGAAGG
Please assign a class to every record based on measured PBM binding z-score, with ranges lower bin: < 0.08; middle bin: ≥ 0.08 and < 0.6; upper bin: ≥ 0.6

Here's what some known entries look like.
biopolymer sequence | target | group
TCGAGTAGGTTACCAAGGGGGCATTCAGCTTTCT | LXRb homodimer (NR concentration 270 nM) | upper bin
GCAAGCAGGCCATTTGGGTCACTCAATGACGGGC | LXRb homodimer (NR concentration 270 nM) | lower bin
ACAGACAGGTGAGTGAAGGTAACTCAACTGGACG | LXRb homodimer (NR concentration 270 nM) | lower bin
TATGCAGGGTCAAAGGCCAGAGTACGAATGTCGA | LXRb homodimer (NR concentration 270 nM) | upper bin

Which category does the recorded PBM binding z-score put "CCTACTGGGCAAAGGTCATTGATCAGTCAAAGCA" in? upper bin

Which category does the recorded PBM binding z-score put "GCTGCTAGGTCAACTGTTGGTCAGCTAAAGCTCG" in? middle bin

Which category does the recorded PBM binding z-score put "TAGCCTAGGTCATTGGGCCAGTATGGTACGCATC" in? middle bin

Which category does the recorded PBM binding z-score put "CCTACGGGGCCATTCAGAGGTCATTGATCATATG" in? middle bin

Which category does the recorded PBM binding z-score put "ACAGACAGGTGAGTGAAGGTAGCTCAGCTGGACG" in? lower bin

Which category does the recorded PBM binding z-score put "TACACAGGGTCAAAGGCCAGAGTACGAATGTCGA" in? upper bin

Which category does the recorded PBM binding z-score put "CTCGAAAGGTCGTGCTCAGGTCAGTATACCAAAC" in? middle bin

Which category does the recorded PBM binding z-score put "CCTACTGGGCCAAAAAGGGCATTGATGCCGATAA" in? lower bin

Which category does the recorded PBM binding z-score put "TGAATGAGGTTATAAGATCAAGGAACGTTGCAAA" in? lower bin

Which category does the recorded PBM binding z-score put "CCTACTTGGTCAAGGTCACACACGCTATAGGTAC" in? upper bin

Which category does the recorded PBM binding z-score put "TCTGCTAGGTCAGTTGGTCAGCTGACGAGCTGCC" in? middle bin

Which category does the recorded PBM binding z-score put "GCTGCGAGGTCAGGTTGGTCAGCTAACGGGTACG" in? middle bin

Sourced from the supplement of paper PMC6555819
